B1: CPEB3 Ribozyme (parent)
chain: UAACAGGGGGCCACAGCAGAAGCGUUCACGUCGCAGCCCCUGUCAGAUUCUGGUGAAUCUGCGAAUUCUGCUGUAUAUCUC

Variants of: B1
Test: self-cleavage, relative activity (ratio to wild type); higher = more cleavage; in vitro, sequencing
Assign t whenever self-cleavage does not fall below 0.2; assign f whenever it does.

{"residue change": "A3U C11G", "category label": "t"}
{"residue change": "C23G U51A", "category label": "f"}
{"residue change": "A35G C39A", "category label": "t"}
{"residue change": "G6U U69C", "category label": "t"}
{"residue change": "A18G U78A", "category label": "t"}
{"residue change": "A2U G19A", "category label": "t"}
{"residue change": "U26C U58A", "category label": "f"}
{"residue change": "A15U A64G", "category label": "t"}
{"residue change": "G10U A28G", "category label": "f"}
